target: various mutants of kinase EGFR (BaF3 cell lines stably transfected with kinase) (Homo sapiens, UniProt P00533, L858R/T790M); construct: expressed in transfected cells; host or cells: BaF3; assay: Growth inhibitory activity of compounds on BaF3 cell lines stably transfected with kinase (MTS, 48 h); assay type: cell-based; details: BaF3 cell line stably transfected with EGFR L858R/T790M, read-out: L858R/ T790M growth inhibitory activity IC50
Sequence (P00533 25-1210 T790M/L858R): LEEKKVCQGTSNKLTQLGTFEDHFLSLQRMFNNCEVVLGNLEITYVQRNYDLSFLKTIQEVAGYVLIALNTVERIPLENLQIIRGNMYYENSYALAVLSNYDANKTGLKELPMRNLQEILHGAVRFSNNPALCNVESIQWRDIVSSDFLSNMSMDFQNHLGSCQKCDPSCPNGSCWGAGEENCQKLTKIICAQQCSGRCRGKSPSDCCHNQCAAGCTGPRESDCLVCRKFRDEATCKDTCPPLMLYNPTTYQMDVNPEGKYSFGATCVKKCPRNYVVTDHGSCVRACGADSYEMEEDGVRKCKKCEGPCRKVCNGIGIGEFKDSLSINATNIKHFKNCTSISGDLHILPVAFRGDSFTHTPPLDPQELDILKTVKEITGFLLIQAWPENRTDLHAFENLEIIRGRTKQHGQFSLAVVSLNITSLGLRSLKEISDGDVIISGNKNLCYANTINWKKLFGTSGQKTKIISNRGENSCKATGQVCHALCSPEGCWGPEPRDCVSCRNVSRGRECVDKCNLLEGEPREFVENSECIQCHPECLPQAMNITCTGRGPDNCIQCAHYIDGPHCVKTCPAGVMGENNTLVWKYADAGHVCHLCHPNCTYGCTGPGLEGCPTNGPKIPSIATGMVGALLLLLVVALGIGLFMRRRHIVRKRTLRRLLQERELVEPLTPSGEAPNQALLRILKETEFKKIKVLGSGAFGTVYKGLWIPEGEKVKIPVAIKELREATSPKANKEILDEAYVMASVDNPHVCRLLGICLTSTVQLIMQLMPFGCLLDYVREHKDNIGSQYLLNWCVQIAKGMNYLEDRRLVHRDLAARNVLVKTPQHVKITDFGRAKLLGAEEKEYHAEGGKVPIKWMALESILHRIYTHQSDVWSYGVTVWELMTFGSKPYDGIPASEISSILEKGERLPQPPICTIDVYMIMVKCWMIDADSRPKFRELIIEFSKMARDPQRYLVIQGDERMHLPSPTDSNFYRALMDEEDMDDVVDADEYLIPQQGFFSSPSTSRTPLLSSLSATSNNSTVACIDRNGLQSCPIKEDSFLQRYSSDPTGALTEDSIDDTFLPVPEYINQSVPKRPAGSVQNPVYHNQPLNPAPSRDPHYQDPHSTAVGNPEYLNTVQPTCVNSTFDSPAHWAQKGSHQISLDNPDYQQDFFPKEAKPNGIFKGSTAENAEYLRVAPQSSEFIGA
pIC50: −log10 of the molar value.
The entries below come with measured pIC50 values attached.

// worked examples, pIC50 included
| Chem smiles | Obs value |
| --- | --- |
| CCc1cc(Nc2ncc(Br)c(Nc3ccc4nccnc4c3NS(C)(=O)=O)n2)c(OC)cc1C(=O)N1CCC(N2CCN(C)CC2)CC1 | 6.30 to 7.30 |
| CC(C)n1ccc(Nc2ncc(Br)c(Nc3ccc4nccnc4c3N(C)S(C)(=O)=O)n2)n1 | 6.30 to 7.30 |
| COc1nc(N2CCC(N3CCN(C)CC3)CC2)ccc1Nc1nc(Nc2ccc3nccnc3c2N(C)S(C)(=O)=O)c2[nH]ccc2n1 | 5.60 to 6.30 |
| CCc1cc(Nc2ncc(Br)c(Nc3ccc4nccnc4c3N(C)S(C)(=O)=O)n2)c(OC)cc1N1CCC(N2CCN(C)CC2)CC1 | 6.30 to 7.30 |
| COc1nc(N2CCC(N3CCN(C)CC3)CC2)c(C)cc1Nc1nc(Nc2ccc3nccnc3c2N(C)S(C)(=O)=O)c2[nH]ccc2n1 | 5.60 to 6.30 |

Consider the record given below.
## Input Query pIC50 for COc1cc(N2CCC(N3CCN(C)CC3)CC2)c(C(C)C)cc1Nc1ncc(Br)c(Nc2ccc3nccnc3c2NS(C)(=O)=O)n1
## Output 6.30 to 7.30

----------
molecular target: various mutants of kinase EGFR (BaF3 cell lines stably transfected with kinase) (Homo sapiens, UniProt P00533, T790M, form not given); construct: other: BaF3 cells stably transfected with EGFR Δ19Del/T790M; MTS, 48 h; other: BaF3 cell line stably transfected with EGFR Δ19Del/T790M; MTS, 48; experiment: Growth inhibitory activity of compounds on BaF3 cell lines stably transfected with kinase (MTS, 48 h); assay type: cell-based; details: BaF3 cells stably transfected with EGFR Δ19Del/T790M, read-out: IC50, growth inhibition, Δ19Del/T790M
Sequence (P00533 with tags, fused parts or gaps DEL746-750/T790M, form open): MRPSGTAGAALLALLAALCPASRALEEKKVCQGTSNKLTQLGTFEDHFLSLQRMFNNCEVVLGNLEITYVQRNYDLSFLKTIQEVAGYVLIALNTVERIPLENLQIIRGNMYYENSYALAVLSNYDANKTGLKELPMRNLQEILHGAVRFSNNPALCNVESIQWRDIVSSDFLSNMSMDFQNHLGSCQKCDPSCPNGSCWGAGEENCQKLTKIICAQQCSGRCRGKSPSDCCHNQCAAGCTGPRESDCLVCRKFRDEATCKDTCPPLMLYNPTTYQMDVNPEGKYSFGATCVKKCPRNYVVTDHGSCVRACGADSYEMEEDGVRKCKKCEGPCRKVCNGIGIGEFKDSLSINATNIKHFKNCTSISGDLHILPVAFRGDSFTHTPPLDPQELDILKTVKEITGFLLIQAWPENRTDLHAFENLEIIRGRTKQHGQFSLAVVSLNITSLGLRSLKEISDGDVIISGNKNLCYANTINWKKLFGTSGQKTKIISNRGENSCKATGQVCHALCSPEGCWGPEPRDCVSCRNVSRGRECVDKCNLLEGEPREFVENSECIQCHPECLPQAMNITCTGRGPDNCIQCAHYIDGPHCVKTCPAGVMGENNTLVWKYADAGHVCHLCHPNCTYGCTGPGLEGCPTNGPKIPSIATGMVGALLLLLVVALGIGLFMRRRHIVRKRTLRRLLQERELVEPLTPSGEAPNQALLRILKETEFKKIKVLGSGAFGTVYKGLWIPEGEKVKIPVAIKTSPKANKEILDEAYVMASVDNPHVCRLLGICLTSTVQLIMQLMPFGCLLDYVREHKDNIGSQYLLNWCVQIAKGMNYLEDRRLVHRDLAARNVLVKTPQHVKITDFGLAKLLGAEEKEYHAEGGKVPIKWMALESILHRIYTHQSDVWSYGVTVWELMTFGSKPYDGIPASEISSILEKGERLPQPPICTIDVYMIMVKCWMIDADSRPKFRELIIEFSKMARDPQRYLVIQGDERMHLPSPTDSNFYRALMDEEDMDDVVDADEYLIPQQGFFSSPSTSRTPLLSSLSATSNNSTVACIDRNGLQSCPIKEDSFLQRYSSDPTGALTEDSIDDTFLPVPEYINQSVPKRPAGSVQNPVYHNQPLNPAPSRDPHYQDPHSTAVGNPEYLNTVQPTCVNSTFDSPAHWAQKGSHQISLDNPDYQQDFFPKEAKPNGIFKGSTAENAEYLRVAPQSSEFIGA
pIC50: −log10 of the molar value.
The entries below come with measured pIC50 values attached.

// worked examples, pIC50 included
| Molecule | pIC50 |
| --- | --- |
| CCc1cc(Nc2ncc(C#N)c(Nc3ccc4nccnc4c3N(C)S(C)(=O)=O)n2)c(OC)cc1N1CCC(N2CCN(C)CC2)CC1 [Compound I-29] | 6.30 to 7.30 |
| CCc1cc(Nc2ncc(C3CC3)c(Nc3ccc4nccnc4c3N(C)S(C)(=O)=O)n2)ccc1N1CCC(N2CCN(C)CC2)CC1 [Compound I-293] | ≥ 7.30 |

## Input Query pIC50 for COc1cc(N2CCN(C)CC2)c(C)cc1Nc1ncc(Cl)c(Nc2ccc3nccnc3c2N(C)S(C)(=O)=O)n1 [Compound I-171]
## Output ≥ 7.30

----------
The entries below come with measured pIC50 values attached.
target: various mutants of kinase EGFR (BaF3 cell lines stably transfected with kinase) (Homo sapiens, UniProt P00533, T790M/C797S, form not given); construct: other: BaF3 cells stably transfected with EGFR Δ19Del/T790M/C797S; MTS, 48; other: BaF3 cell line stably transfected with EGFR Δ19Del/T790M/C7; experiment: Growth inhibitory activity of compounds on BaF3 cell lines stably transfected with kinase (MTS, 48 h); assay type: cell-based; details: BaF3 cell line stably transfected with EGFR Δ19Del/T790M/C797S, read-out: Δ19Del/T790M/ C797S growth inhibitory activity IC50
Sequence (P00533 with tags, fused parts or gaps DEL746-750/T790M/C797S, form open): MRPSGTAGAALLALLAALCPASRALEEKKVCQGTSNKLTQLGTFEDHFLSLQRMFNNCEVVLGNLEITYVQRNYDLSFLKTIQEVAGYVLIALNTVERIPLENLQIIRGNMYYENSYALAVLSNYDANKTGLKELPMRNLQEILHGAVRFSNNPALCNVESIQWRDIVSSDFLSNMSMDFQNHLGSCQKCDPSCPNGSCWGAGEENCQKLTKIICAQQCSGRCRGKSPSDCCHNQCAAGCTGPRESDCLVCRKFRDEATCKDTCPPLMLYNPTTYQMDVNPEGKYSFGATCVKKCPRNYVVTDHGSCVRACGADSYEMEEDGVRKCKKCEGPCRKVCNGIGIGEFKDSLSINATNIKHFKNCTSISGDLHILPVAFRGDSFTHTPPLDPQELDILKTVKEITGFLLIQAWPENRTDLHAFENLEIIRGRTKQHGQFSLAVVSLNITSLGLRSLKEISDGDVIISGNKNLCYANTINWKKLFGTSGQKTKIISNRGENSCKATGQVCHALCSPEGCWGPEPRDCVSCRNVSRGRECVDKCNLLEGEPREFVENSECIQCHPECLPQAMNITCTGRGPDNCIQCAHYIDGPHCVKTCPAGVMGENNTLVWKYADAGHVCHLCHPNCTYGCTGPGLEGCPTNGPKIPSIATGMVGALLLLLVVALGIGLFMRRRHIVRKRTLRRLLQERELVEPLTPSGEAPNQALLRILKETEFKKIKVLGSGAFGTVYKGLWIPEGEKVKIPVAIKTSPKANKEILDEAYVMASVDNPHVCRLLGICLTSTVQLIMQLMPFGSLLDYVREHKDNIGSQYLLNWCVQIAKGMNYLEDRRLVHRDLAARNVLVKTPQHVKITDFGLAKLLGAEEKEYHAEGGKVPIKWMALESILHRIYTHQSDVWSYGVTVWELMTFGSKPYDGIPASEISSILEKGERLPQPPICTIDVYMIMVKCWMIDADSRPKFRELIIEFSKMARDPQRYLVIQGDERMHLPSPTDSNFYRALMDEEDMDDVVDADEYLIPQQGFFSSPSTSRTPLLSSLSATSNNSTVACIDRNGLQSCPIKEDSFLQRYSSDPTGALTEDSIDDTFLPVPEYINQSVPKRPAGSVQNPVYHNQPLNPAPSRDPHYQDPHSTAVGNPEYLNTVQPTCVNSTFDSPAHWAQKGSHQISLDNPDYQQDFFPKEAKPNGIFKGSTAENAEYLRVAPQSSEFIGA
pIC50: −log10 of the molar value.

// worked examples, pIC50 included
| Chem smiles | pIC50 |
| --- | --- |
| CCc1cc(Nc2ncc(Br)c(Nc3ccc4nccnc4c3N(C)S(C)(=O)=O)n2)c(OC)cc1F | 5.60 to 6.30 |
| COc1ccc(N2CCC(O)CC2)cc1Nc1ncc(F)c(Nc2ccc3nccnc3c2N(C)S(C)(=O)=O)n1 | 6.30 to 7.30 |

Consider the record given below.
## Input Query pIC50 for CCn1cc(Nc2ncc(Br)c(Nc3ccc4nccnc4c3N(C)S(C)(=O)=O)n2)cn1
## Output ≥ 7.30

----------
target: various mutants of kinase EGFR (BaF3 cell lines stably transfected with kinase) (Homo sapiens, UniProt P00533, T790M, form not given); construct: other: BaF3 cells stably transfected with EGFR Δ19Del/T790M; MTS, 48 h; other: BaF3 cell line stably transfected with EGFR Δ19Del/T790M; MTS, 48; assay: Growth inhibitory activity of compounds on BaF3 cell lines stably transfected with kinase (MTS, 48 h); assay type: cell-based; settings: BaF3 cell line stably transfected with EGFR Δ19Del/T790M, read-out: Δ19Del/ T790M growth inhibitory activity IC50
Quantity name: IC50

| Compound | IC50 |
| --- | --- |
| CCc1cc(Nc2ncc(Br)c(Nc3ccc4nccnc4c3NS(C)(=O)=O)n2)ccc1N1CCC(N2CCN(C)CC2)CC1 [Compound I-409] | ≤ 50 nM |
| COc1cc(N2CCC(N3CCN(C)CC3)CC2)c(CC2CC2)cc1Nc1ncc(Br)c(Nc2ccc3nccnc3c2N(C2CC2)S(C)(=O)=O)n1 [Compound I-308] | ≤ 50 nM |
| CCc1cnc(Nc2cc(CC)c(N3CCC(N4CCN(C)CC4)CC3)nc2OC)nc1Nc1ccc2nccnc2c1N(C)S(C)(=O)=O [Compound I-320] | ≤ 50 nM |
| CCc1cc(Nc2ncc(Br)c(Nc3ccc4nccnc4c3N(C)S(C)(=O)=O)n2)c(OC)cc1C(=O)N1CCC(N2CCN(C)CC2)CC1 [Compound I-355] | 50 to 500 nM |

## Input Query IC50 for CCOc1cnc(Nc2cc(C)c(N3CCC(N4CCN(C)CC4)CC3)cc2OC)nc1Nc1ccc2nccnc2c1N(C)S(C)(=O)=O [Compound I-336]
## Output 50 to 500 nM

## Input Query IC50 for COc1cc(N2CCN(C)CC2)c(C)cc1Nc1nc(Nc2ccc3nccnc3c2N(C)S(C)(=O)=O)c2sccc2n1 [II-1-12]
## Output 500 to 2500 nM

## Input Query IC50 for CN1CCN(C2CCN(c3c(F)cc(Nc4ncc(Br)c(Nc5ccc6nccnc6c5NS(C)(=O)=O)n4)cc3F)CC2)CC1 [Compound I-360]
## Output 50 to 500 nM

## Input Query IC50 for CCc1cnc(Nc2cc(C)c(N3CCC(N4CCN(C)CC4)CC3)cc2OC)nc1Nc1ccc2nccnc2c1N(C)S(C)(=O)=O [Compound I-317]
## Output ≤ 50 nM

## Input Query IC50 for C=Cc1cc(Nc2nc(Nc3ccc4nccnc4c3N(C)S(C)(=O)=O)c3[nH]ccc3n2)c(OC(F)(F)F)cc1N1CCC(N2CCN(C)CC2)CC1 [II-1-23]
## Output 50 to 500 nM

## Input Query IC50 for CCc1cc(Nc2nc(Nc3ccc4nccnc4c3N(C)S(C)(=O)=O)c3sccc3n2)c(OC)nc1N1CCC(N2CCN(C)CC2)CC1 [II-1-6]
## Output 500 to 2500 nM

## Input Query IC50 for CCc1cc(Nc2ncc(Br)c(Nc3ccc4nccnc4c3N(C)S(C)(=O)=O)n2)c(OC)cc1N1CCC2(CC1)CC(N(C)C)C2 [Compound I-399]
## Output 50 to 500 nM

## Input Query IC50 for CCOc1cnc(Nc2cc(CC)c(N3CCC(N4CCN(C)CC4)CC3)cc2OC)nc1Nc1ccc2nccnc2c1N(C)S(C)(=O)=O [Compound I-337]
## Output ≤ 50 nM

## Input Query IC50 for COc1ccc(N2CCNCC2)cc1Nc1ncc(Br)c(Nc2ccc3nccnc3c2N(C)S(C)(=O)=O)n1 [Compound I-352]
## Output 50 to 500 nM

## Input Query IC50 for CCc1cc(Nc2nccc(Nc3ccc4nccnc4c3N(C)S(C)(=O)=O)n2)ccc1N1CCC(N2CCN(C)CC2)CC1 [Compound I-344]
## Output 50 to 500 nM

## Input Query IC50 for CCc1cc(Nc2nc(Nc3ccc4nccnc4c3N(C)S(C)(=O)=O)c3[nH]ccc3n2)c(OC)cc1N1CCC(N(C)C)C1 (centres unmarked) [II-1-36]
## Output 500 to 2500 nM

----------
biological target: various mutants of kinase EGFR (BaF3 cell lines stably transfected with kinase) (Homo sapiens, UniProt P00533, C797S/L858R/T790M); construct: expressed in transfected cells; host or cells: BaF3; assay: Growth inhibitory activity of compounds on BaF3 cell lines stably transfected with kinase (MTS, 48 h); assay type: cell-based; conditions: BaF3 cell line stably transfected with EGFR L858R/T790M/C797S, read-out: L858R/T790M/ C797S growth inhibitory activity IC50
Sequence (P00533 25-1210 T790M/C797S/L858R): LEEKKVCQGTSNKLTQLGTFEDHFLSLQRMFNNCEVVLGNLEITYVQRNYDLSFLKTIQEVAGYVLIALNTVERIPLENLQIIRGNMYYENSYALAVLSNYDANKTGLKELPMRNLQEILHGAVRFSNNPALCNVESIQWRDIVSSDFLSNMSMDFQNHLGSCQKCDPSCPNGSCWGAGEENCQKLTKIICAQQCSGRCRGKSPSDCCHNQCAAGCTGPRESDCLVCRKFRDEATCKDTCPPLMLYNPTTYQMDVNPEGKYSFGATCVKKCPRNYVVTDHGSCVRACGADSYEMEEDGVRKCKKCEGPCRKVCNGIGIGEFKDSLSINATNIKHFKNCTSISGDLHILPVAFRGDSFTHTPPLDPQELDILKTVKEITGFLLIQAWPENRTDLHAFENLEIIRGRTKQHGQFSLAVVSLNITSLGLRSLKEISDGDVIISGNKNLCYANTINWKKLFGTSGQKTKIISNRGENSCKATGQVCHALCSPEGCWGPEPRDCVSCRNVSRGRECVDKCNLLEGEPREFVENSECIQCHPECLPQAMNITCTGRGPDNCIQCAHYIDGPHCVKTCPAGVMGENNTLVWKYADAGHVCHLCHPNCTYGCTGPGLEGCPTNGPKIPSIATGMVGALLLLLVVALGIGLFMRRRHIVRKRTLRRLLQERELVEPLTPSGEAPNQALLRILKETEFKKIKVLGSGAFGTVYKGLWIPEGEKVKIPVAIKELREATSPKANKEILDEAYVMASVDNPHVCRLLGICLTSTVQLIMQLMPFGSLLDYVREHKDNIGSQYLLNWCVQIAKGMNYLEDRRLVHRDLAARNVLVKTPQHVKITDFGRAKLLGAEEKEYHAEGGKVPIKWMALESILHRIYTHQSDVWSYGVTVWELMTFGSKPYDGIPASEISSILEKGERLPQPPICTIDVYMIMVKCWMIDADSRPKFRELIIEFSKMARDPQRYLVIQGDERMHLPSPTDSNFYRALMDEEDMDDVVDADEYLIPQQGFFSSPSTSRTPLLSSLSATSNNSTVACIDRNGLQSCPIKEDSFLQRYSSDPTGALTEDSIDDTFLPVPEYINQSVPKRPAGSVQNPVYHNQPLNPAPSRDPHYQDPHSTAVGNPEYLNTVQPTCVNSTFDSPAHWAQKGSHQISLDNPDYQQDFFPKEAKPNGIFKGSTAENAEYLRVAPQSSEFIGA
pIC50: −log10 of the molar value.
The entries below come with measured pIC50 values attached.

| Compound | pIC50 |
| --- | --- |
| CCc1cc(Nc2ncc(CC)c(Nc3ccc4nccnc4c3N(C)S(C)(=O)=O)n2)c(OC)cc1N1CCN(C)CC1 [Compound I-322] | ≥ 7.30 |
| COc1cc(N2CCC(N(C)C)C2)c(C)cc1Nc1nc(Nc2ccc3nccnc3c2N(C)S(C)(=O)=O)c2[nH]ccc2n1 (stereo not shown) [II-1-35] | 5.60 to 6.30 |
| CN(c1c(Nc2nc(Nc3cccc(N4CCC(N5CCCC5)CC4)c3)ncc2Br)ccc2nccnc12)S(C)(=O)=O [Compound I-381] | ≥ 7.30 |
| COc1cc(N2CCC(N3CCN(C)CC3)CC2)c(C2CC2)cc1Nc1ncc(Br)c(Nc2ccc3nccnc3c2NS(C)(=O)=O)n1 [Compound I-407] | ≥ 7.30 |

## Input Query pIC50 for COc1cc(N2CCC(N3CCN(C)CC3)CC2)ccc1Nc1ncc(C)c(Nc2ccc3nccnc3c2N(C)S(C)(=O)=O)n1 [Compound I-313]
## Output 6.30 to 7.30

## Input Query pIC50 for CCc1cc(Nc2ncc(C(C)C)c(Nc3ccc4nccnc4c3N(C)S(C)(=O)=O)n2)c(OC)cc1N1CCN(C)CC1 [Compound I-329]
## Output 6.30 to 7.30

## Input Query pIC50 for COc1cc(N2CCC(N3CCN(C)CC3)CC2)ccc1Nc1ncc(Br)c(Nc2ccc3nccnc3c2NS(C)(=O)=O)n1 [Compound I-401]
## Output 6.30 to 7.30

## Input Query pIC50 for COc1ccc(N2CCC(O)CC2)cc1Nc1nc(Nc2ccc3nccnc3c2N(C)S(C)(=O)=O)c2cc[nH]c2n1 [II-2-23]
## Output ≥ 7.30

## Input Query pIC50 for CCc1cnc(Nc2cc(N3CCC(O)CC3)ccc2OC)nc1Nc1ccc2nccnc2c1N(C)S(C)(=O)=O [Compound I-363]
## Output ≥ 7.30

## Input Query pIC50 for COc1cc(N2CCN(C)CC2)c(C)cc1Nc1nc(Nc2ccc3nccnc3c2N(C)S(C)(=O)=O)c2[nH]ccc2n1 [II-1-33]
## Output 5.60 to 6.30

## Input Query pIC50 for COc1cc(N2CCC(N3CCN(C)CC3)CC2)ccc1Nc1ncc(Cl)c(Nc2ccc3nccnc3c2N(C2CC2)S(C)(=O)=O)n1 [Compound I-303]
## Output ≥ 7.30

## Input Query pIC50 for C=Cc1cc(Nc2ncc(Br)c(Nc3ccc4nccnc4c3N(C3CC3)S(C)(=O)=O)n2)c(OC(F)(F)F)cc1N1CCC(N2CCN(C)CC2)CC1 [Compound I-307]
## Output 6.30 to 7.30

## Input Query pIC50 for CCS(=O)(=O)N(C)c1c(Nc2nc(Nc3cc(N4CCC(O)CC4)ccc3OC)ncc2Cl)ccc2nccnc12 [Compound I-372]
## Output ≥ 7.30
